Entries and their IC50 values follow.
- test.target: KRAS G12V (Homo sapiens, UniProt P01116, G12V)
- Sequence (P01116 1-188 isoform P01116-2 G12V): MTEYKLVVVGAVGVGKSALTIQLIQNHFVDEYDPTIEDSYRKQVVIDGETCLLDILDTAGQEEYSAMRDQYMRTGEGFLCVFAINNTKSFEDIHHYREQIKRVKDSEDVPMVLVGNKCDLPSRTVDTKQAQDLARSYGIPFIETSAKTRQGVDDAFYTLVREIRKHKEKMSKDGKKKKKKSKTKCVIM
- method.notes: GDP-GTP exchange assay (bodipy-GDP/GppNHp, SOS1), KRAS G12V
- Assay type: biochemical
- measurement.setup: 2.5 nM bodipy-loaded KRAS G12V, 3 h incubation after adding GppNHp-SOS1; for certain compounds the most potent isomer is quoted; read-out: KRAS_G12V exchange assay IC50
- Method: The inhibitor potency of the exemplified compounds was determined in a fluorescence based guanine nucleotide exchange assay, which measures the exchange of bodipy-GDP (fluorescently labeled GDP) for GppNHp (Non-hydrolyzable GTP analog) to generate the active state of KRAS in the presence of SOS1 (guanine nucleotide exchange factor). […] Fluorescence intensities were measured on a PheraStar plate reader instrument (BMG Labtech) with excitation at 485 nm and emission at 520 nm. […]

Measured IC50 of Cc1nc2c(F)c(-c3cccc(Cl)c3Cl)c(CCC#N)cc2c2c1cc([C@H]1[C@H]3C[C@H](C[C@@H]3Oc3ccncc3)N1C(=O)C1CC1)n2[C@H]1[C@H]2CN[C@@H]1C2 (atropisomer, axis not shown) : ≤ 100 nM

According to the records, this compound Cc1nc2c(F)c(-c3cccc(Cl)c3Cl)c(CCC#N)cc2c2c1cc([C@H]1[C@@H]3C[C@@H]([C@@H]4C[C@@H]43)N1C(=O)C1CC1)n2C1C2CNC1C2 (stereo partly drawn) displays IC50 of 5000 to 10000 nM

In plain terms, Cc1nc2c(F)c(-c3cccc(Cl)c3Cl)c(CCC#N)cc2c2c1cc([C@H]1[C@H]3C[C@H](C[C@@H]3OC(F)F)N1C(=O)C1CC1)n2C1[C@H]2CN[C@@H]1C2 (stereo partly drawn) has a documented IC50 of ≤ 100 nM

Item: Cc1nc2c(F)c(-c3cccc(Cl)c3Cl)c(CCC#N)cc2c2c1cc([C@H]1[C@H]3C[C@H](C[C@H]3F)N1C(=O)C1CC1)n2C1[C@H]2CN[C@@H]1C2 (stereo partly drawn) | IC50: ≤ 100 nM

For Cc1nc2c(F)c(-c3cccc(Cl)c3Cl)c(CCC#N)cc2c2c1cc([C@H]1[C@H]3C[C@H](C[C@H]3O)N1C(=O)C1CC1)n2C1[C@H]2CN[C@@H]1C2 (stereo partly drawn) the compound record lists IC50 as 100 to 1000 nM

Per the record, C[C@@H](O)c1nc2c(F)c(-c3cccc(Cl)c3Cl)c(CCC#N)cc2c2c1cc([C@H]1[C@H]3C[C@H](C[C@@H]3F)N1C(=O)C1(F)CC1)n2[C@H]1[C@H]2CN[C@@H]1C2 (single isomer, unassigned) [Example 8] has IC50 of ≤ 100 nM

Short answer for "Cc1nc2c(F)c(-c3cccc(Cl)c3Cl)c(CCC#N)cc2c2c1cc([C@H]1[C@H]3C[C@H](C[C@@H]3OC3CC3)N1C(=O)C1CC1)n2[C@H]1[C@H]2CN[C@@H]1C2" : IC50 was ≤ 100 nM

# compound Cc1nc2c(F)c(-c3cccc(Cl)c3Cl)c(CCC#N)cc2c2c1cc([C@H]1[C@H]3C[C@H](C[C@@H]3OC(F)F)N1C(=O)C1CC1)n2[C@H]1[C@H]2CN[C@@H]1C2 (atropisomer, axis not shown; (Ra)) ; its IC50 = ≤ 100 nM

Looking up C[C@@H](O)c1nc2c(F)c(-c3cccc(Cl)c3Cl)c(CCC#N)cc2c2c1cc([C@H]1[C@H]3C[C@H](C[C@@H]3F)N1C(=O)C1(F)CC1)n2[C@H]1[C@H]2CN[C@@H]1C2 (atropisomer, axis not shown) [Example 32] , I found its IC50 recorded as ≤ 100 nM
